Values were extracted from patent US11098027B2.

- measured.target: IDO1 (Homo sapiens)
- Construct: HeLa cells were treated with a test compound in the presence of IFNγ, which induces IDO1 expression
- Sequence (P14902 whole entry): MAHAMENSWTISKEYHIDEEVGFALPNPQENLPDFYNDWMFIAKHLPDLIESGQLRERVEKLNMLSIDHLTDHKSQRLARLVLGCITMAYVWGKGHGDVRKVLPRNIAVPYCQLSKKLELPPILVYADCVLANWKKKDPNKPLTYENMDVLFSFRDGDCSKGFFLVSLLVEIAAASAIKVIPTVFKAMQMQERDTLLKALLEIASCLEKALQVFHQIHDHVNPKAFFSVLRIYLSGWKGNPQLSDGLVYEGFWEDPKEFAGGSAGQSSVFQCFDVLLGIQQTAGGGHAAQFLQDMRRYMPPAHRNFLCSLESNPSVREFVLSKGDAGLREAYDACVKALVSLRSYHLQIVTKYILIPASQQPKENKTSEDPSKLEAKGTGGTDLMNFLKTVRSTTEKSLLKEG
- protocol.description: Cell-based (HeLa) assay for measurement of IDO1 inhibition (kynurenine levels in supernatant)
- condition.info: H1-HeLa cells, IDO1 induced with IFNγ, 48 hour incubation, kynurenine read by absorbance at 480 nm; geometric mean of a minimum of four determinations
Assignment: determine reported EC50 for the given compounds.
Numeric answer only, unit nM assumed.

Query: Fetch value of EC50 on IDO1 (Homo sapiens) for CC1(C)C(=O)N(c2ncccn2)c2cccc(-c3ccc(C(F)(F)F)c(C(=O)Nc4ccncn4)c3)c21 .
Reply: 73

Query: Fetch value of EC50 on IDO1 (Homo sapiens) for CC1(C)Oc2c(-c3ccc(C(F)(F)F)c(C(=O)Nc4ccc(F)cc4)c3)cccc2N(c2cnccn2)C1=O .
Reply: 101

Query: Fetch value of EC50 on IDO1 (Homo sapiens) for O=C(Nc1ccc(F)cc1)c1cc(-c2cccc3c2C2(CCC2)C(=O)N3c2ncccn2)ccc1C(F)(F)F .
Reply: 92

Query: Fetch value of EC50 on IDO1 (Homo sapiens) for CC1(C)C(=O)N(c2ncccn2)c2cccc(-c3ccc(C(F)(F)F)c(C(=O)Nc4ccc(F)cc4)n3)c21 .
Reply: 113

Query: Fetch value of EC50 on IDO1 (Homo sapiens) for Cc1ccc(-c2cccc3c2[nH]c(=O)n3-c2cccc(F)c2F)cc1C(=O)Nc1ccc(F)cc1 .
Reply: 62

Query: Fetch value of EC50 on IDO1 (Homo sapiens) for Cc1ncc(-c2cccc3c2C(C)(C)C(=O)N3c2cccnc2)cc1C(=O)Nc1ccc(F)cc1 .
Reply: 94

Query: Fetch value of EC50 on IDO1 (Homo sapiens) for CC1(C)C(=O)N(c2ccccn2)c2nccc(-c3cnc(C(F)(F)F)c(C(=O)Nc4ccc(F)c(F)c4)c3)c21 .
Reply: 103
